Every entry's value here was drawn from PubChem BioAssay (NCI).

Parameter: log10(TGI). Scope: all listed entries.
# Tested on: DU-145 prostate
# procedure_summary: NCI tumour cell line growth inhibition, 48 h
test_readout: log10(TGI) (log10 of the value in µM)

compound=C1=C/COCc2cc(ccc2OCCN2CCCC2)Nc2nccc(n2)-c2ccc(o2)COC/1 endpoint_value=1.14
compound=O=C(Nc1ccc(-n2ccc3c(NC(=O)c4ccccc4)ncnc32)cc1)c1cccc(C(F)(F)F)c1 endpoint_value=1.21
compound="COC(=O)C1=C(O)C(C(=O)OC)[C@]2(O)[C@@H](C(=O)OC)[C@H]1C[C@@H](c1ccccc1)[C@@H]2C(=O)OC (stereo not given in full)" endpoint_value=1.43
compound=CSc1ncc(Br)c(Sc2nc(N)nc3nc[nH]c23)n1 endpoint_value=1.38
compound="CN(C)CCNC(=O)c1ccc(-c2nc3ccc4[nH]ncc4c3c3c2C2CCC3C2)cc1 (stereo not given)" endpoint_value=0.78
compound="O=C1C2=C(C(=O)c3cnccc31)C1C=CC2CC1 (stereo not given)" endpoint_value=0.51
compound=Cc1ncc(C(=O)Nc2ccc(CN3CCN(C)CC3)c(C(F)(F)F)c2)cc1C#Cc1ccc(N)nc1 endpoint_value=0.61
compound=[O-][n+]1c(CN2CCCCC2)nc2cccc3c2c1-c1ccccc1-3 endpoint_value=1.62
